Test system: human Factor 7 mRNA
assay notes: Dose-dependent antisense inhibition of human Factor 7 in HepB3 cells, lipofectin
Format: cell-based
condition description: Table 3, 12.5 nM, approximately 16 hours
Strand notation (5' to 3'): a small letter for the sugar, then the base; units joined by * are phosphorothioate-linked, units joined directly phosphodiester-linked; [ ] holds rarer units or linkages, { } end groups; capitals alone tell only the bases. e = 2'-O-(2-methoxyethyl) (MOE); [5mC] = 5-methylcytosine; d = 2'-deoxy (DNA)
Each entry below carries its recorded percent inhibition of Factor 7.
Field: numeric (%). Do not append units.

{"columns": ["substance", "uom", "percent inhibition of Factor 7"],
 "data": [
  ["407606 (antisense e[5mC]*eT*eG*eG*eT*d[5mC]*d[5mC]*dT*dT*dG*d[5mC]*dA*dG*dG*dA*eG*e[5mC]*e[5mC]*e[5mC]*e[5mC]) [compound 407606]", "%", 49],
  ["407900 (antisense e[5mC]*e[5mC]*e[5mC]*e[5mC]*eA*d[5mC]*dA*dA*dT*dT*d[5mC]*dG*dG*d[5mC]*d[5mC]*eT*eT*eG*eG*eG) [compound 407900]", "%", 80]
]}

Task: Assign percent inhibition of Factor 7 to the following record: 407936 (antisense eG*eG*e[5mC]*eA*eT*dT*d[5mC]*dG*d[5mC]*d[5mC]*dA*d[5mC]*d[5mC]*dA*dT*eG*e[5mC]*eA*eT*eG) [compound 407936]
Result: 79
